For each of the binders below, state its Kd.
Biological target: T1, p204 HINab (Mus musculus, UniProt P0DOV2 216-619)
T1 sequence: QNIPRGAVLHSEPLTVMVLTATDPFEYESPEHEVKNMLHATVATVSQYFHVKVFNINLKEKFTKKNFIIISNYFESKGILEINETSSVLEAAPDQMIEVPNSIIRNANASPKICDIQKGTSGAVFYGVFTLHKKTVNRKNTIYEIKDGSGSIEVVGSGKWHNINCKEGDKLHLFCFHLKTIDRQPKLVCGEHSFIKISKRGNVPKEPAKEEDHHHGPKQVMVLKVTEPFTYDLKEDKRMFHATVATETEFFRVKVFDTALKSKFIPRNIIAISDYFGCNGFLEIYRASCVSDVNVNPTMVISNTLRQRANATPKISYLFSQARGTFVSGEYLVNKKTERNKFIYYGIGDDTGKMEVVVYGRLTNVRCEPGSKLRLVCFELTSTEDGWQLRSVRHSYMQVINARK
Assay: fluorescence polarization
Give bare numbers, in µM.

- binder: "20 mer dsDNA (dsDNA) DNA 1: TAAGACACGATGCGATAAAA DNA 2: TTTTATCGCATCGTGTCTTA"
  Kd [µM]: 156

# input for lookup
**Q:** Tell me its Kd given 30 mer dsDNA (dsDNA) DNA 1: CCATCAGAAAGAGGTTTAATATTTTTGTGA DNA 2: TCACAAAAATATTAAACCTCTTTCTGATGG as the entry.
**A:** 13.5
